Numbers sourced from the supplement of paper PMC6757056.

Listed below: normalized RNA/DNA level without ligand (log10) values for each entry.
B1: library; a variant is named by its letters at N, in order (parent)
chain: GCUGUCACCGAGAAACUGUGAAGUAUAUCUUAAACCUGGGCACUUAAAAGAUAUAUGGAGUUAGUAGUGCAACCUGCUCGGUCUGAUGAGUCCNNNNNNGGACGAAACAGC

Variants of: B1
Assay: normalized RNA/DNA level without ligand (relative to sTRSVctl = 100) (log10 (% of sTRSVctl)); HEK293T; ligand: cyclic di-GMP (c-di-GMP-II aptamer); higher = less ribozyme self-cleavage, higher mRNA level
Details: reporter: mCherry (pCS4076), ligand present: no
Number only, please.

MUTATION SPEC | OBSERVED
UCCUUA | 1.65

Prompt: Identify measured normalized RNA/DNA level without ligand (log10) associated with CUGGAG
Response: 1.6

Prompt: Identify measured normalized RNA/DNA level without ligand (log10) associated with CAACCG
Response: 1.82

Prompt: Identify measured normalized RNA/DNA level without ligand (log10) associated with CUACAC
Response: 1.7
